- system.name: Amine oxidase [flavin-containing] B (Homo sapiens)
- Sequence (P27338 whole entry): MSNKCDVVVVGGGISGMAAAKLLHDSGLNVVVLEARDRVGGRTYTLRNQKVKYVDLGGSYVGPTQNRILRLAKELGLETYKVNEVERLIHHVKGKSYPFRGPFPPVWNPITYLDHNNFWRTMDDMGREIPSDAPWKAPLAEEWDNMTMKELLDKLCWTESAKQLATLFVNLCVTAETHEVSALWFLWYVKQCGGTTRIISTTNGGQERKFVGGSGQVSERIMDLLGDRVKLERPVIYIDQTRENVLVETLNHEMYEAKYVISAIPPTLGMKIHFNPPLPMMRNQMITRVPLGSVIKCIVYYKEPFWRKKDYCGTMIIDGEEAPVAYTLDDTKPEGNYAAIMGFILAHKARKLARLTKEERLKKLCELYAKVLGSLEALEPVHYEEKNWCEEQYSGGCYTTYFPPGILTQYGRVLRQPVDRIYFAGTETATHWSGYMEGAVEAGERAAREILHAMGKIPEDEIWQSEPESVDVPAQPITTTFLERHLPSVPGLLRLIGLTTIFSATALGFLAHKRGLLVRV
- experiment: Inhibition of recombinant human MAO-B expressed in baculovirus infected BTI insect cells using kynuramine as substrate after 20 mins by fluorescence spectrophotometric assay
assay.endpoint: IC50

{"columns": ["item.smiles", "system.name", "IC50"],
 "data": [
  ["COc1ccc2c(c1)Sc1ccc(Cl)cc1N2", "Amine oxidase [flavin-containing] B (Homo sapiens)", "1.34 µM"],
  ["c1ccc2c(c1)Cc1ccccc1O2", "Amine oxidase [flavin-containing] B (Homo sapiens)", "7.42 µM"],
  ["O=C1c2ccccc2C(=O)c2c(O)ccc(O)c21", "Amine oxidase [flavin-containing] B (Homo sapiens)", "110 µM"],
  ["Nc1c(C(=O)O)c2nc3c(C(=O)O)cccc3oc-2cc1=O", "Amine oxidase [flavin-containing] B (Homo sapiens)", "65 µM"],
  ["O=C1c2cccc(O)c2C(=O)c2c(O)cc(CO)cc21", "Amine oxidase [flavin-containing] B (Homo sapiens)", "21.9 µM"]
]}

**Query** Given the entry `Cc1cc(O)c2c(c1)C(=O)c1cc(O)cc(O)c1C2=O` , report its measured IC50.
**Result** 3.24 µM

**Query** Given the entry `Nc1c2ccccc2nc2ccccc12` , report its measured IC50.
**Result** 112 µM

**Query** Given the entry `Clc1c2ccccc2nc2ccccc12` , report its measured IC50.
**Result** 91.9 µM

**Query** Given the entry `O=C1c2ccccc2C(=O)c2cnccc21` , report its measured IC50.
**Result** 4.28 µM

**Query** Given the entry `Nc1ccc2c(c1N)C(=O)c1ccccc1C2=O` , report its measured IC50.
**Result** 2.41 µM

**Query** Given the entry `O=C1c2cccc(O)c2C(=O)c2c(O)cccc21` , report its measured IC50.
**Result** 58.7 µM

**Query** Given the entry `O=C1c2ccc(O)cc2C(=O)c2ccc(O)cc21` , report its measured IC50.
**Result** 5.62 µM

**Query** Given the entry `O=C1c2ccccc2C(=O)c2c(O)c(O)cc(O)c21` , report its measured IC50.
**Result** 40.2 µM

**Query** Given the entry `OC1c2ccccc2Oc2ccccc21` , report its measured IC50.
**Result** 92 µM

---

- system.name: Amine oxidase [flavin-containing] A (Homo sapiens)
- experiment: Inhibition of recombinant human MAO-A expressed in baculovirus infected BTI insect cells using kynuramine as substrate after 20 mins by fluorescence spectrophotometric assay
Entry class follows IC50: low (below 2 µM), mid (2 µM to below 20 µM), high (20 µM or more)

Example entries and their recorded answers appear below.
{"columns": ["item.smiles", "system.name", "label"],
 "data": [
  ["O=C1c2cccc(O)c2C(=O)c2c(O)cc(CO)cc21", "Amine oxidase [flavin-containing] A (Homo sapiens)", "low"],
  ["O=C1c2ccc(O)c(O)c2C(=O)c2c(O)ccc(O)c21", "Amine oxidase [flavin-containing] A (Homo sapiens)", "mid"],
  ["O=C1c2ccc(O)cc2C(=O)c2ccc(O)cc21", "Amine oxidase [flavin-containing] A (Homo sapiens)", "mid"],
  ["c1ccc2c(c1)Cc1ccccc1O2", "Amine oxidase [flavin-containing] A (Homo sapiens)", "high"],
  ["O=C1c2ccccc2Cc2ccccc21", "Amine oxidase [flavin-containing] A (Homo sapiens)", "low"],
  ["Cc1ccc2nc3c(ccc4ccccc43)c(C)c2c1", "Amine oxidase [flavin-containing] A (Homo sapiens)", "high"]
]}

Let's switch to this molecule now.
**Query** Please report the category associated with `COc1ccc2c(c1)Sc1ccc(Cl)cc1N2` , nothing else.
**Result** low

---

- Organism: Homo sapiens
- experiment: Selectivity index, ratio IC50 for recombinant human MAO-B to IC50 for recombinant human MAO-A
assay.endpoint: Ratio IC50

Example compounds with recorded Ratio IC50:
{"columns": ["item.smiles", "Ratio IC50"],
 "data": [
  ["O=C1c2cccc(O)c2C(=O)c2c(O)cc(CO)cc21", 12.4],
  ["Nc1c2ccccc2nc2ccccc12", 4.31],
  ["c1ccc2c(c1)Cc1ccccc1O2", 0.32],
  ["O=C1c2ccc(O)cc2C(=O)c2ccc(O)cc21", 0.49],
  ["OC1c2ccccc2Oc2ccccc21", 3.24]
]}

**Query** Given the entry `Nc1c(C(=O)O)c2nc3c(C(=O)O)cccc3oc-2cc1=O` , report its measured Ratio IC50.
**Result** 1.43

**Query** Given the entry `Cc1cc(O)c2c(c1)C(=O)c1cc(O)cc(O)c1C2=O` , report its measured Ratio IC50.
**Result** 0.75

**Query** Given the entry `O=C1c2ccccc2C(=O)c2c(O)c(O)cc(O)c21` , report its measured Ratio IC50.
**Result** 5.03

---

- system.name: Amine oxidase [flavin-containing] A (Homo sapiens)
- experiment: Inhibition of recombinant human MAO-A expressed in baculovirus infected BTI insect cells using kynuramine as substrate after 20 mins by Lineweaver-Burk plot analysis
assay.endpoint: pKi
pKi is defined as minus the log10 of a concentration measured in mol/L.

**Query** Given the entry `O=C1c2ccccc2C(=O)c2c(O)ccc(O)c21` , report its measured pKi.
**Result** 7.41

---

- system.name: Amine oxidase [flavin-containing] A (Homo sapiens)
- experiment: Inhibition of recombinant human MAO-A expressed in baculovirus infected BTI insect cells using kynuramine as substrate after 20 mins by fluorescence spectrophotometric assay
assay.endpoint: pIC50
pIC50 is defined as minus the log10 of a concentration measured in mol/L.

{"columns": ["item.smiles", "recorded.value"],
 "data": [
  ["O=C1c2ccccc2C(=O)c2c1ccc1c(=O)c3ccccc3[nH]c21", 4.07],
  ["Nc1c(C(=O)O)c2nc3c(C(=O)O)cccc3oc-2cc1=O", 4.34],
  ["O=C1c2cccc(O)c2C(=O)c2c(O)cccc21", 4.97],
  ["Clc1ccc2c(c1)Nc1ccccc1S2", 5.91]
]}

**Query** Any idea what pIC50 came out for `Nc1c2ccccc2nc2ccccc12` on Amine oxidase [flavin-containing] A (Homo sapiens)?
**Result** 4.59

**Query** Any idea what pIC50 came out for `O=c1c2ccccc2oc2ccccc12` on Amine oxidase [flavin-containing] A (Homo sapiens)?
**Result** 6.21

**Query** Any idea what pIC50 came out for `Cc1cc(O)c2c(c1)C(=O)c1cc(O)cc(O)c1C2=O` on Amine oxidase [flavin-containing] A (Homo sapiens)?
**Result** 5.36

**Query** Any idea what pIC50 came out for `Nc1ccc(N)c2c1C(=O)c1ccccc1C2=O` on Amine oxidase [flavin-containing] A (Homo sapiens)?
**Result** 5.97

**Query** Any idea what pIC50 came out for `O=C1c2cccc(O)c2C(=O)c2cccc(O)c21` on Amine oxidase [flavin-containing] A (Homo sapiens)?
**Result** 4.51

**Query** Any idea what pIC50 came out for `O=C1c2ccccc2C(=O)c2c(O)c(O)cc(O)c21` on Amine oxidase [flavin-containing] A (Homo sapiens)?
**Result** 5.10

**Query** Any idea what pIC50 came out for `Nc1ccc2c(c1N)C(=O)c1ccccc1C2=O` on Amine oxidase [flavin-containing] A (Homo sapiens)?
**Result** 5.64

---

- system.name: Amine oxidase [flavin-containing] A (Homo sapiens)
- Sequence (P21397 whole entry): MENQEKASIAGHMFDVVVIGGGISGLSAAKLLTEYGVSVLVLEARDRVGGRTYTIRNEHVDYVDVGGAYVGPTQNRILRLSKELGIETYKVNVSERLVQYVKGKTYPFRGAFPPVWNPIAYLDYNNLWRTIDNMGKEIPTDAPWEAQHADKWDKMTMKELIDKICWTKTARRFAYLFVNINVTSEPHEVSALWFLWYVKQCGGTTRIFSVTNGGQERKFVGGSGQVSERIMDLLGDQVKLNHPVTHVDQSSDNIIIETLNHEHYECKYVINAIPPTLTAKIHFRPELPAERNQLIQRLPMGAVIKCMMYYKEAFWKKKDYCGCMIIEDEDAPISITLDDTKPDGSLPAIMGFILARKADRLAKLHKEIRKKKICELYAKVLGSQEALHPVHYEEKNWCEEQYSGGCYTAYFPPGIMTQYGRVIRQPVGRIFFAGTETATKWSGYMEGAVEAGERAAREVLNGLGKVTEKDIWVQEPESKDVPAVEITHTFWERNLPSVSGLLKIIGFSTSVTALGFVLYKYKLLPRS
- experiment: Inhibition of recombinant human MAO-A expressed in baculovirus infected BTI insect cells using kynuramine as substrate after 20 mins by fluorescence spectrophotometric assay
log10 of IC50 values by entry
A value of 2 here means IC50 of 100 in µM, since values are log10.

{"columns": ["item.smiles", "recorded.value"],
 "data": [
  ["O=C1c2ccccc2C(=O)c2cnccc21", 1.31]
]}

**Query** Given the entry `Clc1c2ccccc2nc2ccccc12` , report its measured log10 of IC50.
**Result** 1.08

**Query** Given the entry `O=C1c2ccccc2C(=O)c2c(O)ccc(O)c21` , report its measured log10 of IC50.
**Result** -1.19

**Query** Given the entry `CN1c2ccccc2Sc2ccccc21` , report its measured log10 of IC50.
**Result** 1.40

**Query** Given the entry `O=C1C(=O)c2ccccc2-c2ccccc21` , report its measured log10 of IC50.
**Result** 0.28

**Query** Given the entry `OC1c2ccccc2Oc2ccccc21` , report its measured log10 of IC50.
**Result** 1.45

**Query** Given the entry `O=C1c2ccccc2C(=O)c2ccccc21` , report its measured log10 of IC50.
**Result** 2.09

**Query** Given the entry `CC1(C)CC(=O)C2=C(C1)C(=O)C1=C(C2)C(=O)CC(C)(C)C1` , report its measured log10 of IC50.
**Result** 1.71
